- Study target: adenosine A3 receptors (Homo sapiens, UniProt P0DMS8)
- Construct: membranes prepared in house
- Sequence (P0DMS8 whole entry): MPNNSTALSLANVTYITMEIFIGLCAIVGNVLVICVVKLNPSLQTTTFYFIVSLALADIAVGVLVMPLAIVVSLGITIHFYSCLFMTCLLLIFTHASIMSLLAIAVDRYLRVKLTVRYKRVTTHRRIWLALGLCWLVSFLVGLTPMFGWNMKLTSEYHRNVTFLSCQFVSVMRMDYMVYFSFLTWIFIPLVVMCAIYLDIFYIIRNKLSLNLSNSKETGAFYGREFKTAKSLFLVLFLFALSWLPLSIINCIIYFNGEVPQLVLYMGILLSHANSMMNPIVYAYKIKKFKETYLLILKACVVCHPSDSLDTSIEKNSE
- Method: A3 [35S]-GTPGammaS binding functional assay (SPA, CHO membranes)
- Reported conditions: agonist stimulation of [35S]-GTPγS binding
Measured attribute: pEC50
Please note pEC50 is a logarithmic value: minus log10 of concentration in mol/L. Answer with that number alone.

(Q) Give reported pEC50 value for CC(=O)N[C@H]1C[C@@H](n2cnc3c(NCc4cccc(I)c4)nc(Cl)nc32)[C@H](O)[C@@H]1O [Example 1]
(A) 7.96
